Test system: ovary cancer SK-OV-3
protocol.text: MTT-based cytotoxicity assay
Assay type: cell-based
run.conditions: Homo sapiens, SK-OV-3; SKOV-3; starting concentration 37 µg/mL; read-out: IC50
Here the recorded IC50 is given for each entry.
Reply numerically in µM, unit not repeated.

{"columns": ["compound", "IC50 (µM)"],
 "data": [
  ["CC(C)=CCc1ccc(O)c(C=O)c1C(=O)c1cc(C)cc2c1OC(C(C)(C)O)CO2 (centres unmarked)", 42.5]
]}

Kindly consider the entry below.
(Q) Provide only the value of recorded IC50 for CCC(C)C=C(C)C=CC1=CC2=C(Cl)C(=O)C3(C)OC(=O)C(C(C)O)C3C2=CO1 (centres unmarked)
(A) 3.3

====

Test system: Pseudomonas aeruginosa PA14
protocol.text: MIC serial dilution assay
Format: cell-based
Design: key: (-): No inhibition
run.conditions: starting concentration 66.7 μg/mL
property.label: MIC

{"columns": ["compound", "tested.on", "result"],
 "data": [
  ["CC(C)=CCc1ccc(O)c2c1C(O)(c1cc(C)cc3c1O[C@H](C(C)(C)O)CO3)NC2=O (stereo partly drawn) [Compound 4, diaporisoindole F1/F2]", "Pseudomonas aeruginosa PA14", "-"],
  ["CC(C)=CCc1ccc(O)c2c1C(O)(c1cc(C)cc3c1OC(C(C)(C)O)CO3)OC2=O (stereo not drawn) [Compound 2, isoprenylisobenzofuran B]", "Pseudomonas aeruginosa PA14", "-"],
  ["CC(C)=CCc1ccc(O)c2c1C(O)(c1cc(C)cc3c1O[C@H](C(C)(C)O)CO3)OC2 (mixture of isomers) [Compound 3, isoprenylisobenzofuran C1/C2]", "Pseudomonas aeruginosa PA14", "-"]
]}

====

Test system: Schizosaccharomyces pombe DSM 70572
protocol.text: MIC serial dilution assay
Type: cell-based
Set-up: key: (-): No inhibition
run.conditions: starting concentration 66.7 μg/mL
Marks after values point to notes of the source that are not given here.
property.label: MIC

Example results:
{"columns": ["compound", "result"],
 "data": [
  ["CCC(C)C1OC(=O)CNC(=O)CNC(=O)[C@H]([C@@H](C)O)NC(=O)C(C)C(O)CC(O)CC/C=C/C1C (some centres unmarked) [Compound 1, eucalactam B]", "-"],
  ["C[C@@H]1[C@H](O)[C@@H](C)/C=C/C=C/CC/C=C/C=C/C=C/C=C/C(O[C@H]2O[C@H](C)[C@@H](O)[C@H](N)[C@@H]2O)CC2O[C@](O)(CC(O)C(O)CCC(O)CC(O)CC(O)CC(=O)O[C@H]1C)CC(O)C2C(=O)O (some centres unmarked) [Nystatin, reference compound]", "8.3 ^n µg/mL"],
  ["CC(C)=CCc1ccc(O)c2c1C(O)(c1cc(C)cc3c1OC(C(C)(C)O)CO3)OC2=O (centres unmarked) [Compound 2, isoprenylisobenzofuran B]", "-"],
  ["CC(C)=CCc1ccc(O)c2c1C(O)(c1cc(C)cc3c1O[C@H](C(C)(C)O)CO3)OC2 (mixture of isomers) [Compound 3, isoprenylisobenzofuran C1/C2]", "-"]
]}

Attention now turns to another entry.
(Q) Provide MIC value for the following compound: CCC(C)C=C(C)C=CC1=CC2=C(Cl)C(=O)C3(C)OC(=O)C(C(C)O)C3C2=CO1 (centres unmarked) [Compound 7, isochromophilonol A1/A2]
(A) -

====

Tested on: ovary cancer SK-OV-3
protocol.text: MTT-based cytotoxicity assay
Format: cell-based
run.conditions: Homo sapiens, SK-OV-3
property.label: IC50 (nM)
The response must be a number in nM with no trailing unit.

(Q) Given the molecule C/C(=C\c1csc(C)n1)[C@@H]1C[C@@H]2O[C@]2(C)CCC[C@H](C)[C@H](O)[C@@H](C)C(=O)C(C)(C)[C@@H](O)CC(=O)O1 [Epothilone B, reference compound] , write its reported IC50.
(A) 0.099
